# Experiment: MTT cytotoxicity assay (CC50)
# Format: cell-based
# Experimental Parameters: African green monkey, VERO-E6 cells
Reported Endpoint: CC50 at 24 h (µM)
Give your result in µM as a bare value.

CC50 at 24 h measured on CCS(=O)(=O)N1C/C(=C\c2ccc(Cl)cc2)C(=O)C2(C1)C(c1ccc(Cl)cc1)CN(C)C21C(=O)Nc2ccc(Cl)cc21 (stereo not drawn) [Compound 6l] = 476

###

# Assay Target: VEGFR-2 (Homo sapiens, UniProt P35968)
# Construct: Western blot technique was considered for EGFR and VEGFR-2 properties determination; endogenous in cells; host or cells: MCF7 (breast cancer cell line)
# Sequence (P35968 20-1356): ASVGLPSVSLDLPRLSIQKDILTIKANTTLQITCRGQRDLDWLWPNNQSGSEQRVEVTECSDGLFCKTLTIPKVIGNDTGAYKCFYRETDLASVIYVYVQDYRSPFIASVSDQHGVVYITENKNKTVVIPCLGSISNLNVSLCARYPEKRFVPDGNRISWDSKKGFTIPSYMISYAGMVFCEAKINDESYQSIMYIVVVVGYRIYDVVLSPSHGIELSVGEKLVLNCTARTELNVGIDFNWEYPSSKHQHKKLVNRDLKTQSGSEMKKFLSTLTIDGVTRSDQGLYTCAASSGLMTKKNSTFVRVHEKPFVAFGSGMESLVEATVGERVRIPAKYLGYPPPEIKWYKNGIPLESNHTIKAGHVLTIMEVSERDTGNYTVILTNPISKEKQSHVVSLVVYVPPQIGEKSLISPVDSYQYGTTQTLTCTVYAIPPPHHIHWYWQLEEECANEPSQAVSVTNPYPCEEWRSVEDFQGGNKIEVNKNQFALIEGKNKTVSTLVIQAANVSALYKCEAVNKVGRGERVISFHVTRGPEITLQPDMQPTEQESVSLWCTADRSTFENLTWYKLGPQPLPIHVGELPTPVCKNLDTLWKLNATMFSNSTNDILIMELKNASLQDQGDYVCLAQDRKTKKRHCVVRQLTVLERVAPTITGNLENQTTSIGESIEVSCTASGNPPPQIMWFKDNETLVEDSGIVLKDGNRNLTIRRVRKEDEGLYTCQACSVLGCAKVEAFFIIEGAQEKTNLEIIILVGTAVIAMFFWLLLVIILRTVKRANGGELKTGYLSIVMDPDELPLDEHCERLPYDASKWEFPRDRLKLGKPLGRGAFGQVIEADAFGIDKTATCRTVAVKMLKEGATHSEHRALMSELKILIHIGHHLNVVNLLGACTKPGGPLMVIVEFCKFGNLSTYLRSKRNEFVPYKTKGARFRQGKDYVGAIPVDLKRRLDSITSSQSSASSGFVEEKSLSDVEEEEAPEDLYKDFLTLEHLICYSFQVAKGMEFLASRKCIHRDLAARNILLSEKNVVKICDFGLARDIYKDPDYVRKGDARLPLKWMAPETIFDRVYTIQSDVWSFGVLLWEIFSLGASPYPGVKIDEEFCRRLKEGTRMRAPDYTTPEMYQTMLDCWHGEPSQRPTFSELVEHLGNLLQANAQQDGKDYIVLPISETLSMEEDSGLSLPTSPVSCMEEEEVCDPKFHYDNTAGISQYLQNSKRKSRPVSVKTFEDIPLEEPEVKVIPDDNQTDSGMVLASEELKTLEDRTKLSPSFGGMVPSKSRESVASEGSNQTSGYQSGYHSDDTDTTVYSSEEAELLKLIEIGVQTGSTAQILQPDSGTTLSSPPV
# Format: cell-based
# Experimental Parameters: western blot, MCF7, compound at its MTT IC50; control RQ 3.2634
Reported VEGFR-2 RQ (relative quantification) by item:
The reply should be a number, written without any unit.

Let me check: CCS(=O)(=O)N1C/C(=C\c2ccc(Cl)cc2)C(=O)C2(C1)C(c1ccc(Cl)cc1)CN(C)C21C(=O)Nc2ccc(Cl)cc21 (stereo not drawn) [Compound 6l] , system VEGFR-2 (Homo sapiens, UniProt P35968), measured VEGFR-2 RQ (relative quantification) is 1.299

Measured on VEGFR-2 (Homo sapiens, UniProt P35968), CCS(=O)(=O)N1C/C(=C\c2ccc(F)cc2)C(=O)C2(C1)C(c1ccc(F)cc1)CN(C)C21C(=O)Nc2ccccc21 (stereo not drawn) [Compound 6g] has a documented VEGFR-2 RQ (relative quantification) of 1.186

For the next question, use this molecule.
Readout VEGFR-2 RQ (relative quantification) for CCS(=O)(=O)N1C/C(=C\c2ccc(F)cc2)C(=O)C2(C1)C(c1ccc(F)cc1)CN(C)C21C(=O)Nc2ccc(Cl)cc21 (stereo not drawn) [Compound 6h] , test system VEGFR-2 (Homo sapiens, UniProt P35968), was 1.104

###

# Tested on: MCF7 (breast) cancer cell line
# Experiment: MTT antiproliferation, MCF7
# Type: cell-based, human
# Experimental Parameters: IC50 of RPE1/IC50 of cancer cell line
Reported Endpoint: SI (selectivity index) MCF7

# example entries with known answers
With MCF7 (breast) cancer cell line as the test system, COc1ccc(/C=C2\CN(S(C)(=O)=O)CC3(C2=O)C(c2ccc(OC)c(OC)c2)CN(C)C32C(=O)Nc3ccc(Cl)cc32)cc1OC (centres unmarked) showed SI (selectivity index) MCF7 of > 1.0

The reported SI (selectivity index) MCF7 value, MCF7 (breast) cancer cell line, for COc1ccc(/C=C2\CN(S(C)(=O)=O)CC3(C2=O)C(c2ccc(OC)c(OC)c2)CN(C)C32C(=O)Nc3ccccc32)cc1OC (centres unmarked) reads > 1.2

The value of SI (selectivity index) MCF7 recorded for CCS(=O)(=O)N1C/C(=C\c2ccc(Cl)cc2)C(=O)C2(C1)C(c1ccc(Cl)cc1)CN(C)C21C(=O)Nc2ccc(Cl)cc21 (centres unmarked) when tested on MCF7 (breast) cancer cell line reads > 12.5

I looked up CCS(=O)(=O)N1C/C(=C\c2ccc(F)cc2)C(=O)C2(C1)C(c1ccc(F)cc1)CN(C)C21C(=O)Nc2ccc(Cl)cc21 (centres unmarked) and its SI (selectivity index) MCF7 for MCF7 (breast) cancer cell line was > 10.7

Continue with the compound presented below.
GET /values?item= CN1CC(c2ccccc2)C2(CN(S(C)(=O)=O)C/C(=C\c3ccccc3)C2=O)C12C(=O)Nc1ccccc12 (centres unmarked) &system= MCF7 (breast) cancer cell line returns SI (selectivity index) MCF7: > 2.5
